# Test system: microorganisms
# protocolSummary: Morphology, biofilm and growth disruption by peptides (Table 5)
# Assay type: cell-based
# Design: key: A: Peptide aggregates; B: Less hyphal formation; Clumps; Diffuse clumps and small polyps; F: Diffuse growth; H: Thin; I: Growth inhibition; Microcolony formation; Rippled; Small polyps; Thick; W: Halo formation on top, microlonies on bottom
# condition: S. mutans
measuredProperty: Organism, effect (morphology, biofilm and growth disruption)

[
  {
    "substance": "GNVHPESDFHNLIQFIKTFLYFTIFFKYFL [PF-C290]",
    "reading": "S. mutans (F)"
  },
  {
    "substance": "PF-612 (GTTLKYGLERQLKIDIHPEITIINLNGGADEFAKL; Peptide with targeting and/or antimicrobial activity)",
    "reading": "S. mutans (F)"
  },
  {
    "substance": "PF-741 (chain 1 AKREDTVAAQIGANILNLIQ; chain 2 AKREDTVAAQIGANILNLIQ; Peptide with targeting and/or antimicrobial activity)",
    "reading": "S. mutans (D)"
  },
  {
    "substance": "PF-C098 (PETKGKVSAFVFGIVVANVIAVVYILYMLREIGIIQ; Peptide with targeting and/or antimicrobial activity)",
    "reading": "S. mutans (F)"
  },
  {
    "substance": "KFQGEFTNIGQSYIVSASHMSTSLNTGK [PF-583]",
    "reading": "S. mutans (F)"
  },
  {
    "substance": "PF-C075 (KALVISVFAIVFSIIFVKFFYWRDKK; Peptide with targeting and/or antimicrobial activity)",
    "reading": "S. mutans (F)"
  },
  {
    "substance": "PF-C145 (YGKESDP; Peptide with targeting and/or antimicrobial activity)",
    "reading": "S. mutans (I)"
  },
  {
    "substance": "FESKILNASKELDKEKKVNTALSFNSHQDFAKAYQNGKI [PF-606]",
    "reading": "S. mutans (I)"
  },
  {
    "substance": "PF-C291 (HPFLTGTGCPLFLIFRLFFVKAYFSFTVF; Peptide with targeting and/or antimicrobial activity)",
    "reading": "S. mutans (F)"
  },
  {
    "substance": "PF-C139 (LLASHPERLSLGVFFVYRVLHLLLENT; Peptide with targeting and/or antimicrobial activity)",
    "reading": "S. mutans (F)"
  },
  {
    "substance": "PF-C061 (TLNYKKMFFSVIFLLGLNYLICNSPLFFKQIEF; Peptide with targeting and/or antimicrobial activity)",
    "reading": "S. mutans (F)"
  },
  {
    "substance": "PF-746 (chain 1 FLGNSQYFTRK; chain 2 FLGNSQYFTRK; Peptide with targeting and/or antimicrobial activity)",
    "reading": "S. mutans (D)"
  },
  {
    "substance": "PF-C072 (KKMFSLIRKVNWIFFILFIVLDLTNVFPLIRTILFAILSRQ; Peptide with targeting and/or antimicrobial activity)",
    "reading": "S. mutans (F)"
  }
]

###

# Test system: bacteria
# protocolSummary: Binding of targeting peptides to microorganisms (Table 3)
# condition: peptide binding in aqueous buffers that varied depending on peptide solubility; preferably 1x PBS
measuredProperty: Target(s) (microorganism bound by the targeting peptide)

[
  {
    "substance": "PF-687 (chain 1 AKRVLSLAVAPHRRQPVQGT; chain 2 AKRVLSLAVAPHRRQPVQGT; Peptide with targeting and/or antimicrobial activity)",
    "reading": "Mycobacteria spp"
  },
  {
    "substance": "PF-700 (chain 1 LNWPFTGR; chain 2 LNWPFTGR; Peptide with targeting and/or antimicrobial activity)",
    "reading": "Mycobacteria spp"
  },
  {
    "substance": "PF-652 (chain 1 FLAPARPDLQAQRQALAQ; chain 2 FLAPARPDLQAQRQALAQ; Peptide with targeting and/or antimicrobial activity)",
    "reading": "Mycobacteria spp"
  },
  {
    "substance": "PF-651 (chain 1 PRWPTGAGRHR; chain 2 PRWPTGAGRHR; Peptide with targeting and/or antimicrobial activity)",
    "reading": "Mycobacteria spp"
  }
]

###

# Test system: microorganisms
# protocolSummary: Morphology, biofilm and growth disruption by peptides (Table 5)
# Type: cell-based
# Parameters: key: A: Peptide aggregates; B: Less hyphal formation; Clumps; Diffuse clumps and small polyps; F: Diffuse growth; H: Thin; I: Growth inhibition; Microcolony formation; Rippled; Small polyps; Thick; W: Halo formation on top, microlonies on bottom
# condition: S. pneumoniae
# Description: In certain embodiments peptides that induce alterations in phenotype or other biological activities can also be used as antimicrobial effector moieties.
Ends that are not written are not given here.
measuredProperty: Organism, effect (morphology, biofilm and growth disruption)

[
  {
    "substance": "PF-440 (MFIISPDLFNIAVILYILFFIHDILLLILS; Peptide with targeting and/or antimicrobial activity)",
    "reading": "S. pneumoniae (R)"
  },
  {
    "substance": "PF-528 (LVDVVVLIRRHLPKSCS-NH2)",
    "reading": "S. pneumoniae (R)"
  },
  {
    "substance": "PF-663 (chain 1 ATLIPRKA; chain 2 ATLIPRKA; Peptide with targeting and/or antimicrobial activity)",
    "reading": "S. pneumoniae (A)"
  },
  {
    "substance": "PF-682 (chain 1 RRGKSEQGLSRR; chain 2 RRGKSEQGLSRR; Peptide with targeting and/or antimicrobial activity)",
    "reading": "S. pneumoniae (A)"
  }
]

###

# Tested on: bacteria
# protocolSummary: Binding of targeting peptides to microorganisms (Table 3)
# condition: microorganism bound by the targeting peptide; binding in aqueous buffers chosen by peptide solubility, preferably 1x PBS
measuredProperty: Target(s)

[
  {
    "substance": "PF-329 (IGILFDKSVRKY; Peptide with targeting and/or antimicrobial activity)",
    "experimentalTarget": "bacteria",
    "reading": "S. epidermidis"
  },
  {
    "substance": "PF-163 (TSWLRAAERQEIGEPTKTFGEKTTSL; Peptide with targeting and/or antimicrobial activity)",
    "experimentalTarget": "bacteria",
    "reading": "S. epidermidis"
  },
  {
    "substance": "PF-159 (TMAFVEKAQLRVPVGDDLPV; Peptide with targeting and/or antimicrobial activity)",
    "experimentalTarget": "bacteria",
    "reading": "S. epidermidis"
  },
  {
    "substance": "PF-314 (ECLKKAIKSKALNKAFKIDVPDEVYDNLLMELEEYEK; Peptide with targeting and/or antimicrobial activity)",
    "experimentalTarget": "bacteria",
    "reading": "S. mutans"
  },
  {
    "substance": "MKKLVAALAVIVILTGCVYDPVNYDKIHDQEFQDHLRQNG [PF-252]",
    "experimentalTarget": "bacteria",
    "reading": "S. mutans"
  },
  {
    "substance": "PF-225 (MNCASPEFKKLMELYK; Peptide with targeting and/or antimicrobial activity)",
    "experimentalTarget": "bacteria",
    "reading": "S. epidermidis"
  }
]

###

# Test system: bacteria
# protocolSummary: Binding of targeting peptides to microorganisms (Table 3)
# condition: peptide binding in aqueous buffers that varied depending on peptide solubility; preferably 1x PBS
measuredProperty: Target(s) (microorganism bound by the targeting peptide)

[
  {
    "substance": "PF-684 (chain 1 RKLSLASGFALWRRSLV; chain 2 RKLSLASGFALWRRSLV; Peptide with targeting and/or antimicrobial activity)",
    "reading": "Mycobacteria spp"
  },
  {
    "substance": "PF-665 (chain 1 VLRVATAVGEVPTGL; chain 2 VLRVATAVGEVPTGL; Peptide with targeting and/or antimicrobial activity)",
    "reading": "Mycobacteria spp"
  }
]

###

# Test system: bacteria
# protocolSummary: Binding of targeting peptides to microorganisms (Table 3)
# condition: peptide binding in aqueous buffers that varied depending on peptide solubility; preferably 1x PBS
measuredProperty: Target(s) (microorganism bound by the targeting peptide)

[
  {
    "substance": "PF-704 (chain 1 APAARAAL; chain 2 APAARAAL; Peptide with targeting and/or antimicrobial activity)",
    "reading": "Mycobacteria spp"
  },
  {
    "substance": "PF-650 (IRSDQPGRQSRSSPRWPTGAGRHR; Peptide with targeting and/or antimicrobial activity)",
    "reading": "Mycobacteria spp"
  }
]
